src = PubChem BioAssay (NCI)

Tested on: SW-620 colon
test.name: NCI-60 one-dose screen, 48 h (100 = growth as untreated, 0 = no growth, -100 = all killed)
experimental.context: 10 µM unless noted
About 83,000 compounds went through this panel and 20% of them were active in at least one assay; those are over-represented in the sample as a whole.
outcome.measure: growth (%)
Numbers only, in %.

The cases that follow already have their growth on record.
{"columns": ["compound", "growth / %"],
 "data": [
  ["CCCCCCCCCCCCCCCC(=O)OCC1OC(n2cnc3c(=S)nc(N)[nH]c32)C(OC(=O)CCCCCCCCCCCCCCC)C1OC(=O)CCCCCCCCCCCCCCC (stereo not given)", 78.6],
  ["CCOC(=O)C(CC)n1c(=O)c2cc(OC)c(OC)cc2c2cnc3[nH]ccc3c21 (stereo not given)", 79.9],
  ["O=c1ccc2cc3ccccc3cc2[nH]1", 97.4]
]}

List reported growth for each of these compounds:
1. N=c1c2ccccc2nc2n1CCCCC2
2. COc1cc(-c2c3c(nc4c2c(C)nn4-c2ccccc2)-c2ccccc2C(=O)C3=O)cc(OC)c1OC
3. CCOC(=O)c1nc(Nc2cc(C)[nH]n2)c2ccccc2n1
4. CCN(CC)CC(C)(C)C(=O)/C=C/c1ccccc1
5. O=C(/C=C/c1ccc(Cl)cc1)c1ccc(O)c(CN2CCN(c3cc4c(cc3F)c(=O)c(C(=O)O)cn4C3CC3)CC2)c1
6. COc1cccc2c1C(=O)c1c(O)c3c(c(O)c1C2=O)C[C@@](O)(/C(C)=N/NC(=O)c1ccc(Cl)cc1)C[C@@H]3OC1CC(N)C(O)C(C)O1 (stereo not given in full)
7. Cl/C(=N\Nc1ccccc1)c1ccccc1

Result:
1: 110; 2: 86.2; 3: 104; 4: 35.4; 5: 47.8; 6: -36.6; 7: 105
